- testedTarget: P2Y purinoceptor 14 (Homo sapiens) (UniProt Q15391)
- assayMethodText: Antagonist activity at human P2Y14R expressed in human HEK293 cells assessed as inhibition of cAMP level at 100 nM incubated for 30 mins by cAMP-glo assay relative to control
- Format: functional, cell-based
- experimentalSetup: filed as antagonist
readoutLabel: inhibition

> print(dat)
                                 querysmiles  measvalue
 1  O=C(Cc1ccc(C(F)(F)F)cc1)Nc1cccc(-c2nc3cc(Cl)ccc3o2)c1      85.5%
 2  O=C(Cc1ccc(Cl)cc1)Nc1ccc(-c2cc3ccccc3o2)cc1        51%
 3  CCCCOc1ccc(CC(=O)Nc2cccc(-c3nc4cc(Cl)ccc4o3)c2)cc1        68%
 4  CC(C)(C)c1ccc(CC(=O)Nc2cccc(-c3nc4cc(Cl)ccc4o3)c2)cc1        57%
 5  Cc1ccc2oc(-c3cccc(NC(=O)Cc4ccc(C(F)(F)F)cc4)c3)nc2c1      71.3%
 6  O=C(Cc1ccccc1Br)Nc1cccc(-c2nc3ccccc3o2)c1      68.6%
 7  Cc1ccc2oc(-c3cccc(NC(=O)Cc4ccccc4Br)c3)nc2c1      42.1%
 8  Cc1ccc2oc(-c3cccc(NC(=O)Cc4ccc5c(c4)OCO5)c3)nc2c1      55.1%
 9  O=C(Cc1ccccc1Br)Nc1cccc(-c2nc3cc(Cl)ccc3o2)c1      72.6%
10  O=C(Cc1cccc(OC(F)(F)F)c1)Nc1cccc(-c2nc3ccccc3o2)c1        80%

###

- testedTarget: P2Y purinoceptor 14 (Homo sapiens) (UniProt Q15391)
- Sequence (whole entry): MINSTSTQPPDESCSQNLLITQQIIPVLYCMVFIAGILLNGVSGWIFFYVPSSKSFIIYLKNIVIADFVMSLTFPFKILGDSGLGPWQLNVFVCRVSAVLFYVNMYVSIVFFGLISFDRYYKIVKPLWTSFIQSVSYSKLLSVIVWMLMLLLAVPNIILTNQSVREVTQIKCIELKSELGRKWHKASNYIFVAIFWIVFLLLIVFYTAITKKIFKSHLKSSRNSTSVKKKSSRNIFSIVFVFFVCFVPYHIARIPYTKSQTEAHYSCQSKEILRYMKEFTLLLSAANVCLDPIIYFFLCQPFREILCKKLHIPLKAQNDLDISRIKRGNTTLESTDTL
- assayMethodText: Antagonist activity at human P2Y14R expressed in human HEK293 cells assessed as inhibition of cAMP level at 100 nM incubated for 30 mins by cAMP-glo assay relative to control
- Assay type: functional, cell-based
- experimentalSetup: filed as antagonist
readoutLabel: inhibition (%)

> print(dat)
                                 querysmiles  uom  measvalue
 1    O=C(Cc1cccs1)Nc1ccc(-c2cc3ccccc3o2)cc1    %         45
 2  O=C(Cc1ccc2c(c1)OCO2)Nc1cccc(-c2nc3ccccc3o2)c1    %       63.3
 3  Cc1ccc(CC(=O)Nc2cccc(-c3nc4ccccc4o3)c2)cc1    %       85.6
 4  COc1cccc(CC(=O)Nc2cccc(-c3nc4ccccc4o3)c2)c1    %         83
 5  O=C(Cc1ccc(C(F)(F)F)cc1)Nc1ccc(-c2cc3ccccc3o2)cc1    %         57
 6  COc1ccccc1CC(=O)Nc1cccc(-c2nc3ccccc3o2)c1    %         83
 7  CCCCOc1ccc(CC(=O)Nc2ccc(-c3cc4ccccc4o3)cc2)cc1    %         61
 8  COc1cccc(CC(=O)Nc2cccc(-c3nc4cc(Cl)ccc4o3)c2)c1    %         82
 9  O=C(Cc1cccc(Br)c1)Nc1cccc(-c2nc3ccccc3o2)c1    %       70.5
10  O=C(Cc1ccccc1Cl)Nc1cccc(-c2nc3cc(Cl)ccc3o2)c1    %       68.6
11  O=C(Cc1ccc(OC(F)(F)F)cc1)Nc1cccc(-c2nc3cc(Cl)ccc3o2)c1    %         88
12  COc1ccc(CC(=O)Nc2cccc(-c3nc4ccccc4o3)c2)cc1    %         98
13  COc1ccc(CC(=O)Nc2ccc(-c3cc4ccccc4o3)cc2)cc1    %         75
14  O=C(Cc1ccc(OC(F)(F)F)cc1)Nc1cccc(-c2nc3ccccc3o2)c1    %         91
15  CC(C)(C)c1ccc(CC(=O)Nc2cccc(-c3nc4ccccc4o3)c2)cc1    %         68
16  O=C(Cc1cccc(Cl)c1)Nc1cccc(-c2nc3cc(Cl)ccc3o2)c1    %       74.6
17  O=C(Cc1cccc(OC(F)(F)F)c1)Nc1cccc(-c2nc3cc(Cl)ccc3o2)c1    %         84
18  Cc1ccc(CC(=O)Nc2cccc(-c3nc4cc(C)ccc4o3)c2)cc1    %       72.7
19  O=C(Cc1ccc2c(c1)OCO2)Nc1ccc(-c2cc3ccccc3o2)cc1    %         47
